Origin of measurements: ChEMBL document CHEMBL3352210

Quick reference: viability at 72 h, 15 µM of the listed items.
# assay.text: Cytotoxicity against human HepG2 cells assessed as cell viability at 15 uM after 72 hrs by Celltitre-glo assay
# Assay type: cell-based
# experimental.context: read-out: Activity
Note: unit % is implicit; provide only the numeric part.

// known answers, use as guide
- O=C1/C(=C/c2ccc(O)c(O)c2)Oc2ccccc21: 114
- COc1ccc(/C=C2\Oc3ccccc3C2=O)cc1OC: 114
- COc1cccc(/C=C2\Oc3ccccc3C2=O)c1: 101
- COc1cc(OC)c2c(c1)O/C(=C\c1ccccc1)C2=O: 9
- O=C(O)c1ccc(/C=C2\Oc3ccccc3C2=O)cc1: 73
- COc1ccc(/C=C2\Oc3ccccc3C2=O)cc1: 65

Exercise: Provide one value: measured viability at 72 h, 15 µM of `COc1cccc(/C=C2\Oc3ccccc3C2=O)c1OC`
Solution: 104

Exercise: Provide one value: measured viability at 72 h, 15 µM of `Cc1ccc(/C=C2\Oc3ccccc3C2=O)cc1`
Solution: 35

Exercise: Provide one value: measured viability at 72 h, 15 µM of `O=C1/C(=C/c2ccc(O)cc2)Oc2ccccc21`
Solution: 100

Exercise: Provide one value: measured viability at 72 h, 15 µM of `COc1cccc(/C=C2\Oc3ccc(Cl)cc3C2=O)c1OC`
Solution: 99

Exercise: Provide one value: measured viability at 72 h, 15 µM of `COc1cc(OC)c2c(c1)O/C(=C\c1ccccc1Cl)C2=O`
Solution: 80

Exercise: Provide one value: measured viability at 72 h, 15 µM of `O=C1/C(=C/c2ccc(Cl)cc2)Oc2ccccc21`
Solution: 110

Exercise: Provide one value: measured viability at 72 h, 15 µM of `O=C1/C(=C/c2ccc(O)c(O)c2)Oc2cc(O)cc(O)c21`
Solution: 116

Exercise: Provide one value: measured viability at 72 h, 15 µM of COc1ccccc1/C=C1\Oc2ccccc2C1=O [(Z)-2'-METHOXYAURONE]
Solution: 103

Exercise: Provide one value: measured viability at 72 h, 15 µM of `O=C(/C=C/c1ccc(Cl)cc1)c1ccccc1O`
Solution: 62

Exercise: Provide one value: measured viability at 72 h, 15 µM of `COc1cc(OC)c2c(c1)O/C(=C\c1ccccc1OC)C2=O`
Solution: 104

----------
# measured.on: NAD-dependent protein deacetylase sirtuin-2 (Homo sapiens) (UniProt Q8IXJ6)
# Sequence (Q8IXJ6 whole entry): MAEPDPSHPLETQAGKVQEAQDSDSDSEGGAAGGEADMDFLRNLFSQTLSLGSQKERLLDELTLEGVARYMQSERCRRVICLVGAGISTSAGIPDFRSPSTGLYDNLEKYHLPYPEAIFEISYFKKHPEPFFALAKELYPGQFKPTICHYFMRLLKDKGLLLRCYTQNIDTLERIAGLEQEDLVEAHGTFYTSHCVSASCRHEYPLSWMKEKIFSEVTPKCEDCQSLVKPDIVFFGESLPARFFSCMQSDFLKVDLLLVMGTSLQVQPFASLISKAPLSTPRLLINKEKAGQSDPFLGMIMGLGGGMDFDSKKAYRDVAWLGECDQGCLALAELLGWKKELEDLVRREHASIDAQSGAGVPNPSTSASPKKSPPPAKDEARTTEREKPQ
# assay.text: Modulation of sirtuin 2 (unknown origin) by thermal shift assay
Active and inactive are the calls of the source. The calls are words filed in the database; no cut-off is given here.
experimental.endpoint: inhibition

// known answers, use as guide
* Cc1ccc(/C=C2\Oc3ccccc3C2=O)cc1 | inactive
* O=C1/C(=C/c2cccc(O)c2O)Oc2ccccc21 | inactive
* COc1ccc(/C=C2\Oc3cc(OC)cc(OC)c3C2=O)cc1 [4,4',6-TRIMETHOXY-AURONE] | inactive
* COc1ccc(/C=C2\Oc3ccc(Br)cc3C2=O)cc1OC | inactive
* COc1cccc(/C=C2\Oc3ccccc3C2=O)c1OC | inactive

Exercise: Provide one value: measured inhibition of `O=C(/C=C/c1ccc(Cl)cc1)c1ccccc1O`
Solution: inactive

Exercise: Provide one value: measured inhibition of `COCOc1cc(OCOC)c2c(c1)O/C(=C\c1ccc(OCOC)c(OCOC)c1)C2=O`
Solution: inactive

Exercise: Provide one value: measured inhibition of `COc1cccc(/C=C2\Oc3ccc(Cl)cc3C2=O)c1OC`
Solution: inactive

Exercise: Provide one value: measured inhibition of `COc1cc(OC)c2c(c1)O/C(=C\c1ccccc1Cl)C2=O`
Solution: inactive

Exercise: Provide one value: measured inhibition of `O=C(O)c1ccc(/C=C2\Oc3ccccc3C2=O)cc1`
Solution: inactive

Exercise: Provide one value: measured inhibition of `O=C1/C(=C/c2ccc(O)c(O)c2)Oc2ccccc21`
Solution: inactive

Exercise: Provide one value: measured inhibition of COc1ccccc1/C=C1\Oc2ccccc2C1=O [(Z)-2'-METHOXYAURONE]
Solution: inactive

Exercise: Provide one value: measured inhibition of COc1ccc(/C=C2\Oc3ccccc3C2=O)cc1 [4'-METHOXY-AURONE]
Solution: inactive

Exercise: Provide one value: measured inhibition of O=C1/C(=C/c2ccc(O)c(O)c2)Oc2cc(O)cc(O)c21 [AUREUSIDIN]
Solution: inactive

Exercise: Provide one value: measured inhibition of `COc1cc(OC)c2c(c1)O/C(=C\c1ccccc1)C2=O`
Solution: inactive

----------
# measured.on: UniProt Q92769
# Sequence (Q92769 whole entry): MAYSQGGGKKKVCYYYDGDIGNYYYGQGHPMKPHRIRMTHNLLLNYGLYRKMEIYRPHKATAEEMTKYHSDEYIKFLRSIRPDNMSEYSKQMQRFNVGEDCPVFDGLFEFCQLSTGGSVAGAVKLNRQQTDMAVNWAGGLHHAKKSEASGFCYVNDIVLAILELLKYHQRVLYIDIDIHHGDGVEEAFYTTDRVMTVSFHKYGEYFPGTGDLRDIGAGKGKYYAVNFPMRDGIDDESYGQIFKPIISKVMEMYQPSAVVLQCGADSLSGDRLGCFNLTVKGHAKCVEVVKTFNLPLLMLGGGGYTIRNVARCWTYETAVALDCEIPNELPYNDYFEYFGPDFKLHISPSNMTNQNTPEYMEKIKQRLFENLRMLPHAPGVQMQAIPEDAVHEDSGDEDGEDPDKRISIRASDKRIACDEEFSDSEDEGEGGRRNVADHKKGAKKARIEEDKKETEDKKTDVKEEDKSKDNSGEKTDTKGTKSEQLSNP
experimental.endpoint: IC50 (µM)
Note: unit µM is implicit; provide only the numeric part.

Exercise: Provide one value: measured IC50 of `O=C1/C(=C/c2ccc(O)cc2)Oc2ccccc21`
Solution: 100

----------
# measured.on: Retinoic acid receptor beta (Homo sapiens) (UniProt P10826)
# Sequence (P10826 whole entry): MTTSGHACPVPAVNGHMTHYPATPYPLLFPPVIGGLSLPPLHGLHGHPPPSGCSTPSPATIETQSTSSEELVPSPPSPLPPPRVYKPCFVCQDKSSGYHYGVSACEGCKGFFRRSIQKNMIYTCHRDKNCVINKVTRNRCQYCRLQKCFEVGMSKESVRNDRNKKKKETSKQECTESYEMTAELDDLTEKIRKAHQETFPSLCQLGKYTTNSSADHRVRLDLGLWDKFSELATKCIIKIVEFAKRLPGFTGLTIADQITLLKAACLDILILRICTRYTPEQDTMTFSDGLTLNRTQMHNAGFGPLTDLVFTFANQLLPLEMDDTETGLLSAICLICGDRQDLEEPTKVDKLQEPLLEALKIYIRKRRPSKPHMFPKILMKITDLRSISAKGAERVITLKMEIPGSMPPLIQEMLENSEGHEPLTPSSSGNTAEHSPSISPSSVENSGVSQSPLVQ
# assay.text: Inhibition of RAR-beta (unknown origin) assessed as change in DNA methylation
The source made the active and inactive calls. The rule behind the calls is not given here.
experimental.endpoint: inhibition

// known answers, use as guide
* O=C1/C(=C/c2ccc(O)c(O)c2)Oc2cc(O)cc(O)c21 | inactive
* COc1cc(OC)c2c(c1)O/C(=C\c1ccccc1Cl)C2=O | inactive
* COc1cc(OC)c2c(c1)O/C(=C\c1ccccc1OC)C2=O | inactive
* O=C1/C(=C/c2ccc(Cl)cc2)Oc2ccccc21 | inactive
* O=C1/C(=C/c2ccc(O)cc2)Oc2ccccc21 | inactive

Exercise: Provide one value: measured inhibition of `COc1ccc(/C=C2\Oc3ccccc3C2=O)cc1OC`
Solution: inactive

Exercise: Provide one value: measured inhibition of `COc1cc(OC)c2c(c1)O/C(=C\c1ccccc1)C2=O`
Solution: inactive

Exercise: Provide one value: measured inhibition of `O=C(O)c1ccc(/C=C2\Oc3ccccc3C2=O)cc1`
Solution: inactive

Exercise: Provide one value: measured inhibition of `O=C1/C(=C/c2cccc(O)c2O)Oc2ccccc21`
Solution: inactive

Exercise: Provide one value: measured inhibition of `O=C(/C=C/c1ccc(Cl)cc1)c1ccccc1O`
Solution: inactive

Exercise: Provide one value: measured inhibition of `Cc1ccc(/C=C2\Oc3ccccc3C2=O)cc1`
Solution: inactive

----------
# assay.text: Cytotoxicity against human HepG2 cells assessed as cell viability at 15 uM after 72 hrs by Celltitre-glo assay
# Format: cell-based
# experimental.context: read-out: Activity
experimental.endpoint: viability at 72 h, 15 µM (%)
Note: unit % is implicit; provide only the numeric part.

// known answers, use as guide
- COc1ccc(/C=C2\Oc3cc(OC)cc(OC)c3C2=O)cc1 [4,4',6-TRIMETHOXY-AURONE]: 119
- O=C1/C(=C/c2cccc(O)c2O)Oc2ccccc21: 113
- COCOc1cc(OCOC)c2c(c1)O/C(=C\c1ccc(OCOC)c(OCOC)c1)C2=O: 7
- Cc1ccc(/C=C/C(=O)c2ccccc2O)cc1: 120
- O=C(O)c1ccc(/C=C2\Oc3ccc(Cl)cc3C2=O)cc1: 86

Next molecule, viability at 72 h, 15 µM to be filled in.
Exercise: Provide one value: measured viability at 72 h, 15 µM of `COc1ccc(/C=C2\Oc3ccc(Br)cc3C2=O)cc1OC`
Solution: 93

----------
# assay.text: Cytotoxicity against human MCF7 cells assessed as cell viability at 15 uM after 72 hrs by Celltitre-glo assay
# Assay type: cell-based
# experimental.context: read-out: Activity
Quick reference: viability at 72 h, 15 µM of the listed items.
Note: unit % is implicit; provide only the numeric part.

// known answers, use as guide
* O=C1/C(=C/c2ccc(O)c(O)c2)Oc2ccccc21 | 95
* COCOc1cc(OCOC)c2c(c1)O/C(=C\c1ccc(OCOC)c(OCOC)c1)C2=O | 21
* COc1ccccc1/C=C1\Oc2ccccc2C1=O [(Z)-2'-METHOXYAURONE] | 88

Exercise: Provide one value: measured viability at 72 h, 15 µM of `Cc1ccc(/C=C2\Oc3ccccc3C2=O)cc1`
Solution: 86

Exercise: Provide one value: measured viability at 72 h, 15 µM of O=C1/C(=C/c2ccc(O)c(O)c2)Oc2cc(O)cc(O)c21 [AUREUSIDIN]
Solution: 102

----------
# measured.on: Histone deacetylase (Homo sapiens) (UniProt Q13547+O15379+Q9UBN7+Q92769+Q9UQL6+Q8WUI4+Q9BY41+Q96DB2+P56524+Q9UKV0+Q969S8)
# assay.text: Inhibition of HDAC in human HeLa cell extract at 100 uM after 15 mins by fluorescence assay
# Type: protein assay
experimental.endpoint: inhibition (%)
Note: unit % is implicit; provide only the numeric part.

// known answers, use as guide
• COc1ccc(/C=C2\Oc3ccc(Br)cc3C2=O)cc1OC = 14
• COc1cc(OC)c2c(c1)O/C(=C\c1ccccc1Cl)C2=O = 46
• COc1ccccc1/C=C1\Oc2ccccc2C1=O [(Z)-2'-METHOXYAURONE] = 7
• COCOc1cc(OCOC)c2c(c1)O/C(=C\c1ccc(OCOC)c(OCOC)c1)C2=O = 75
• O=C1/C(=C/c2ccc(O)c(O)c2)Oc2ccccc21 = 100

Exercise: Provide one value: measured inhibition of `O=C1/C(=C/c2ccc(O)c(O)c2)Oc2cc(O)cc(O)c21`
Solution: 100

Exercise: Provide one value: measured inhibition of `O=C1/C(=C/c2ccc(O)cc2)Oc2ccccc21`
Solution: 100

Exercise: Provide one value: measured inhibition of `O=C(/C=C/c1ccc(Cl)cc1)c1ccccc1O`
Solution: 0

Exercise: Provide one value: measured inhibition of `Cc1ccc(/C=C2\Oc3ccccc3C2=O)cc1`
Solution: 5

Exercise: Provide one value: measured inhibition of `Cc1ccc(/C=C/C(=O)c2ccccc2O)cc1`
Solution: 0

Exercise: Provide one value: measured inhibition of `O=C1/C(=C/c2ccc(Cl)cc2)Oc2ccccc21`
Solution: 13

Exercise: Provide one value: measured inhibition of `COc1ccc(/C=C2\Oc3ccccc3C2=O)cc1OC`
Solution: 51

Exercise: Provide one value: measured inhibition of `O=C(O)c1ccc(/C=C2\Oc3ccc(Cl)cc3C2=O)cc1`
Solution: 30

Exercise: Provide one value: measured inhibition of `COc1cccc(/C=C2\Oc3ccc(Cl)cc3C2=O)c1OC`
Solution: 6

Exercise: Provide one value: measured inhibition of `COc1cc(OC)c2c(c1)O/C(=C\c1ccccc1)C2=O`
Solution: 27

Exercise: Provide one value: measured inhibition of `O=C1/C(=C/c2cccc(O)c2O)Oc2ccccc21`
Solution: 98

Exercise: Provide one value: measured inhibition of `COc1ccc(/C=C2\Oc3ccccc3C2=O)cc1`
Solution: 23
